Test: Solubility of the compound in JP2 fluid at pH 6.8
Assay type: physicochemical
experimental.endpoint: solubility (µg/mL)

CCOCCOC[C@H]1CCCN(c2cc(C)nc3sc(C(N)=O)c(N)c23)C1    560

a. CCOCCOC[C@H]1CCCN(c2ccnc3sc(C(N)=O)c(N)c23)C1
b. COC[C@H]1CCCN(c2ccnc3sc(C(N)=O)c(N)c23)C1
Quick one: lower solubility, a or b ? Returns: label corresponding to the selected item. b
(b: 220 µg/mL, a: 500 µg/mL)

###

Biological target: CYP2C19 (Homo sapiens, UniProt P33261)
Sequence (P33261 whole entry): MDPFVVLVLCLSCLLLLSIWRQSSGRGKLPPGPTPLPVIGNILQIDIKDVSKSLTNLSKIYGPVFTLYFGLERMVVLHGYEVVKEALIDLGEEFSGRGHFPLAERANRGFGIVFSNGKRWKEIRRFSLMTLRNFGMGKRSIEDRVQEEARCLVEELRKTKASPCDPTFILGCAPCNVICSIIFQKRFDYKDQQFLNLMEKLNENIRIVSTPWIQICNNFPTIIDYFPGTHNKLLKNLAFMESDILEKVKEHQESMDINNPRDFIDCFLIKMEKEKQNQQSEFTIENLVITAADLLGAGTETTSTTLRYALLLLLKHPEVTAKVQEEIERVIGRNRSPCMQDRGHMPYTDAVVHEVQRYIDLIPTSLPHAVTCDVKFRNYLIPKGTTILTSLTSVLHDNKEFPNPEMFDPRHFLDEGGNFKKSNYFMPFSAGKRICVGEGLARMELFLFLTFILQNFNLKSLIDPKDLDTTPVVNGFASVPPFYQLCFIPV
Assay: Inhibition of CYP2C19 (unknown origin) at 10 uM
Assay type: ADME
experimental.endpoint: inhibition at 10 µM (%)

1. CCOCCOC[C@H]1CCCN(c2ccnc3sc(C(N)=O)c(N)c23)C1
2. NC(=O)c1sc2nccc(N3CCCCC3)c2c1N
Returns: the argument ( 1 or 2 ) having the larger inhibition at 10 µM. Returns: label corresponding to the selected item. 1

###

Experiment: AUC (0 to 8 hrs) in Fischer 344 rat at 3 mg/kg, po
Assay type: ADME, organism-based
Set-up: time < 8 hr, route oral, dose 3 mg/kg
Details: in vivo
experimental.endpoint: AUC(0-t) at 8 h (ng·h/mL)

// below: answered compounds
NC(=O)c1sc2nccc(N3CCC[C@H](COCCO)C3)c2c1N    320
Cc1noc(COC[C@H]2CCCN(c3ccnc4sc(C(N)=O)c(N)c34)C2)n1    563
Cn1ccnc1COC[C@H]1CCCN(c2ccnc3sc(C(N)=O)c(N)c23)C1    45
CCOCCOC[C@H]1CCCN(c2cc(C)nc3sc(C(N)=O)c(N)c23)C1    1350
NC(=O)c1sc2nccc(N3CCC[C@H](COCC(=O)N4CCOCC4)C3)c2c1N    756

I. CCOCCOC[C@H]1CCCN(c2ccnc3sc(C(N)=O)c(N)c23)C1
II. COC[C@H]1CCCN(c2ccnc3sc(C(N)=O)c(N)c23)C1
Quick one: lower AUC(0-t) at 8 h, I or II ? Returns: label corresponding to the selected item. II
(II: 227 ng·h/mL, I: 2000 ng·h/mL)

###

Experiment: AUC in Fischer 344 rat at 100 mg/kg, po
Format: ADME, organism-based
Set-up: dose 100 mg/kg
Details: in vivo
experimental.endpoint: AUC (ng·h/mL)
Just the number in ng·h/mL, nothing appended.

AUC lookup needed for NC(=O)c1sc2nccc(N3CCCC(C(=O)O)C3)c2c1N (stereo unspecified) , thanks. 18800

###

Test: Cmax in Fischer 344 rat at 3 mg/kg, po
Format: ADME, organism-based
Set-up: route oral, dose 3 mg/kg
Conditions: in vivo
experimental.endpoint: Cmax (ng/mL)

I. Cn1ccnc1COC[C@H]1CCCN(c2ccnc3sc(C(N)=O)c(N)c23)C1
II. NC(=O)c1sc2nccc(N3CCC[C@H](COCC(=O)N4CCOCC4)C3)c2c1N
III. CCOCCOC[C@H]1CCCN(c2ccnc3sc(C(N)=O)c(N)c23)C1
// ascending sort on Cmax for the entries above Kindly provide the labels arranged according to the requested ordering. I, II, III
(I: 15.1 ng/mL, II: 217 ng/mL, III: 804 ng/mL)

a. Cc1noc(COC[C@H]2CCCN(c3ccnc4sc(C(N)=O)c(N)c34)C2)n1
b. CCOCCOC[C@H]1CCCN(c2cc(C)nc3sc(C(N)=O)c(N)c23)C1
c. COC[C@H]1CCCN(c2ccnc3sc(C(N)=O)c(N)c23)C1
Order field: Cmax | Direction: descending (largest first) Kindly provide the labels arranged according to the requested ordering. b, a, c

1. NC(=O)c1sc2nccc(N3CCC[C@H](COCCO)C3)c2c1N
2. Cc1cc(N2CCC[C@H](COCc3nc(C)no3)C2)c2c(N)c(C(N)=O)sc2n1
Quick one: lower Cmax, 1 or 2 ? Returns: label corresponding to the selected item. 1
(1: 114 ng/mL, 2: 188 ng/mL)
